These data points were gathered from patent EP0252028A1.

Task for the reader: assign each of the following molecules its reported Growth inhibition zones.
# Tested on: Streptococcus faecalis ATCC 8043
# Protocol details: agar diffusion test, growth inhibition zones
# Format: cell-based

Problem: Tell me the measured Growth inhibition zones of Cc1ccc2[nH]c(-c3ccc([N+](=O)[O-])o3)nc2c1 , please.
Result: 23 mm

Problem: Would you kindly share the measured Growth inhibition zones for O=[N+]([O-])c1ccc(-c2nc3ccccc3[nH]2)o1 ?
Result: 24 mm

Problem: Please look up its Growth inhibition zones: O=[N+]([O-])c1ccc(-c2nc3cc(Cl)ccc3[nH]2)o1
Result: 22 mm

Problem: # Growth inhibition zones lookup, item O=[N+]([O-])c1ccc2[nH]c(-c3ccc([N+](=O)[O-])o3)nc2c1
Result: 20 mm

Problem: Item O=[N+]([O-])c1ccc(-c2nc3cc(F)ccc3[nH]2)o1 has what recorded Growth inhibition zones?
Result: 33 mm

Problem: Quick one: Growth inhibition zones for O=[N+]([O-])c1ccc(-c2nc3cc(C(F)(F)F)ccc3[nH]2)o1 ?
Result: 21 mm
